Ref: paper PMC11979273

# Test method notes: Multiple ascending-dose (MAD) study, plasma pharmacokinetics
# Assay type: in vivo, human
# Reported conditions: both sexes, human, plasma, oral, 10 mg, MAD 10 mg (N = 10), D1, fasting, mean (SD); read-out: AUC0-t
Recorded metric: AUC(0-t) (ng·h/mL)
Report the value in ng·h/mL with no unit label.

stdin: Would you mind telling me what AUC(0-t) value was observed for Cc1nc(-c2cnc(N3CCN(CCCc4c[nH]c5ccc(C#N)cc45)CC3)nc2)sc1C(N)=O [HEC113995PA·H2O] ?
stdout: 483

* * *

# Test method notes: Single ascending-dose (SAD) study, plasma pharmacokinetics
# Assay type: in vivo, human
# Reported conditions: both sexes, human, plasma, oral; SAD single dose 20 mg, N = 8, median (min, max); read-out: Tmax
Recorded metric: Tmax (h)
The answer is to be given in h; state only the numeric part.

stdin: Tmax for Cc1nc(-c2cnc(N3CCN(CCCc4c[nH]c5ccc(C#N)cc45)CC3)nc2)sc1C(N)=O [HEC113995PA·H2O] ?
stdout: 8
